Target: T1, hFLAG-EGF34+NRR-His6 (101V), the human Notch1 NRR immunogen (Notch1 V1307-Q1733) (human, UniProt P46531 1307-1733)
T1 construct: also called hNotch1 NRR; human NRR1
T1 sequence (P46531 other isoform, or with tags, fused parts or gaps limits assumed): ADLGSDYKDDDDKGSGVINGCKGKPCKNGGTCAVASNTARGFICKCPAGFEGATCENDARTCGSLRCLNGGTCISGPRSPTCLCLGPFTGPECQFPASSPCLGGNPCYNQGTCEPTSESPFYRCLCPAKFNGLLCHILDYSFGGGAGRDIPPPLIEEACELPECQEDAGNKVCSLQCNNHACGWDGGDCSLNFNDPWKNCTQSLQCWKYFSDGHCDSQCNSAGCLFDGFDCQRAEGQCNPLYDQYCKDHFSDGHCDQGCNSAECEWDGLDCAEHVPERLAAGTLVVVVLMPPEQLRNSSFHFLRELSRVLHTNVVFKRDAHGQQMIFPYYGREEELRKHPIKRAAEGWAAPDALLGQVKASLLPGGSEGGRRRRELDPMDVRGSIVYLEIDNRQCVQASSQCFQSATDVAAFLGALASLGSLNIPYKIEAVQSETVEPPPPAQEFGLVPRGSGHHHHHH
Assay: SPR (BIAcore-3000), IgG captured by anti-human IgG, NRR1-ECD injected 3.9-500 nM, 25 C
Method: To further characterize the binding affinity and binding kinetics of the anti-Notch1 NRR Mabs, surface plasmon resonance (SRP) measurement with a BIAcore™-3000 was used (BIAcore, Inc., Piscataway, N.J.). […] Association rates (kₒₙ) and dissociation rates (koff) were calculated using a simple one-to-one Langmuir binding model (BIAcore Evaluation Software version 3.2). The equilibrium dissociation constant (KD) was calculated as the ratio koff/kₒₙ.
quantity kind: pKd
# reply with the number alone; pKd is -log10 of concentration in mol/L

Consider the following illustrative entries.
| binder | pKd |
| --- | --- |
| Antibody A-2 (antibody, V domains shown, also called Antibody A-2-hIgG1) VH: EVQLVESGGGLVQPGGSLRLSCAASGFTFSSYWIHWVRQAPGKGLEWVARINPPNRSNQYADSVKGRFTISADTSKNTAYLQMNSLRAEDTAVYYCARGSGFRWVMDYWGQGTLVTVSS VL: DIQMTQSPSSLSASVGDRVTITCRASQDVSTAVAWYQQKPDGTVKLLIYSASFLYSGVPSRFSGSGSGTDFTLTISSLQPEDFATYYCQQFYTTPSTFGQGTKVEIKR | 8.60 |
| Antibody A-3 (antibody, V domains shown) VH: EVQLVESGGGLVQPGGSLRLSCAASGFTFSSYWIHWVRQAPGKGLEWVARINPANGSTRYADSVKGRFTISADTSKNTAYLQMNSLRAEDTAVYYCARGSGFRWVMDYWGQGTLVTVSS VL: DIQMTQSPSSLSASVGDRVTITCRASQDVSTAVAWYQQKPDGTVKLLIYSASFLYSGVPSRFSGSGSGTDFTLTISSLQPEDFATYYCQQSFSTPATFGQGTKVEIK | 8.23 |

The measured pKd associated with Antibody A (antibody, V domains shown, Tested as full-length human IgG1 (hIgG1) made in CHO cells; also called anti-Notch1 NRR Antibody A; Antibody A-hIgG1) VH: EVQLVESGGGLVQPGGSLRLSCAASGFTFSSYWIHWVRQAPGKGLEWVARINPSNGSTNYADSVKGRFTISADTSKNTAYLQMNSLRAEDTAVYYCARGSGFRWVMDYWGQGTLVTVSS VL: DIQMTQSPSSLSASVGDRVTITCRASQDVSTAVAWYQQKPDGTVKLLIYSASFLYSGVPSRFSGSGSGTDFTLTISSLQPEDFATYYCQQSYTTPPTFGQGTKVEIKR reads 6.87

The measured pKd associated with Antibody A-1 (antibody, V domains shown, also called Antibody A-1-hIgG1) VH: EVQLVESGGGLVQPGGSLRLSCAASGFTFSSYWIHWVRQAPGKGLEWVARINPPNGSAHYADSVKGRFTISADTSKNTAYLQMNSLRAEDTAVYYCARGSGFRWVMDYWGQGTLVTVSS VL: DIQMTQSPSSLSASVGDRVTITCRASQDVSTAVAWYQQKPDGTVKLLIYSASFLYSGVPSRFSGSGSGTDFTLTISSLQPEDFATYYCQQSYTTPATFGQGTKVEIKR reads 8.46
